tested on: TK-10; test: NCI tumour cell line growth inhibition, 48 h
The source made the active and inactive calls. No stated cut-off is given here; in the data, active = GI50 up to about 1.1 µM and inactive = higher.
Property Name: GI50

Compound	Target System	GI50
Cn1c(=O)c(C(=O)NC(=O)OCc2ccccc2)cn(CCSCCOC(=O)NCCCCCCNC(=O)OCCSCCn2cc(C(=O)NC(=O)OCc3ccccc3)c(=O)n(C)c2=O)c1=O	TK-10	> 100 µM (inactive)
COC(=O)[C@@H]1C[C@@]2(C3C=CN(C(=O)C(F)(F)F)C=C3)c3ccccc3N(C(=O)C(F)(F)F)[C@H]2N1C(=O)OC	TK-10	16.9 µM (inactive)
CC(C)C1=CC23CCC4C(C)(C(=O)O)CCCC4(C)C2CC1C1C(=O)N(c2ccccc2N2C(=O)C4C5CC6C7(C)CCCC(C)(C(=O)O)C7CCC6(C=C5C(C)C)C4C2=O)C(=O)C13 (centres undefined)	TK-10	13.1 µM (inactive)

Okay, now this compound:
Incoming: Supply recorded GI50 for N=c1oc2ccc(Cl)cc2cc1C(=O)NCc1ccccc1 here.
Outgoing: > 100 µM (inactive)

* * *

tested on: M14; experiment: NCI tumour cell line growth inhibition, 48 h
The source made the active and inactive calls. Rule as the data show it: active = GI50 up to about 1.1 µM and inactive = higher. Where a SMILES comes first, the peptide text is derived from it. The star is where a group is joined. Cbz = O=C(OCc1ccccc1)*
Exercise: state measured GI50 for each of the compounds provided.

Please go through the list and note GI50 for each compound.
1. C[C@@H]1OC(=O)C[C@H]2CC(=O)N(CCC3CN(S(=O)(=O)C(F)(F)F)c4ccc(Cc5ccc6c(c5)C(CCN5C[C@H]7[C@@H](CC(=O)O[C@H]7C)CC5=O)CN6S(=O)(=O)C(F)(F)F)cc43)C[C@@H]21 (some centres not stated)
2. CCOC(=O)CCC(NC(=O)CNC(=O)CNC(=O)C(CCC(=O)OCC)NC(=O)C(CCC(=O)OCC)NC(=O)C(CCC(=O)OCC)NC(=O)OCc1ccccc1)C(=O)NC(CCC(=O)OCC)C(=O)NC(CCC(=O)OCC)C(=O)OCC (configuration not stated) (Cbz-E(OEt)E(OEt)E(OEt)GGE(OEt)E(OEt)E(OEt)-OEt; configuration not given here)
3. CCOc1cc(-c2nc3ccccn3c2/N=C/c2cc([N+](=O)[O-])cc([N+](=O)[O-])c2O)ccc1O
4. N#C/C=C1\C=CC(O)C(O)C1OC1OC(CO)C(O)C(O)C1O (configuration not stated)
5. Cn1[nH]nn/c1=N\N=C\c1ccccc1

Outgoing:
> 100 µM (inactive)
> 75 µM (inactive)
> 100 µM (inactive)
> 100 µM (inactive)
> 10 µM (inactive)

Please go through the list and note GI50 for each compound.
1. N#CC1=C(Cl)NC(Cl)=C(C#N)C1c1c(Cl)cccc1Cl
2. C#CC1=CC(=O)C(OC)=CC1=O

Outgoing:
["38.8 µM (inactive)", "16.5 µM (inactive)"]

* * *

test system: IGROV-1; assay: NCI tumour cell line growth inhibition, 48 h
Calls of active or inactive are those of the source. Cut-off read from the data, not from the text of the source: active = GI50 up to about 1.1 µM and inactive = higher.
Exercise: state measured GI50 for each of the compounds provided.

Example entries begin here.
In [3]: df
Out[3]:
                                   compound  target_system               value
0  C=C1C(=O)C([Si](C)(C)C)=C2C=C(C)C3(CC3)C12C (stereo unspecified)        IGROV-1  25.2 µM (inactive)
1  CC(=O)c1c(C(F)(F)F)[n+]([O-])c2cc(Cl)c(Cl)cc2[n+]1[O-]        IGROV-1   0.111 µM (active)
2  O=[N+]([O-])c1cccc2nccc(NCC(O)CO)c12 (stereo unspecified)        IGROV-1  16.1 µM (inactive)
3  COC(=O)c1[nH]c(=S)[nH]c(=O)c1-c1ccc(Cl)cc1        IGROV-1  > 50 µM (inactive)
4  Cc1ccc(-n2c(C)nc3c2C(=O)c2ccccc2C3=O)cc1        IGROV-1  27.9 µM (inactive)

Please go through the list and note GI50 for each compound.
1. O=C1CCC2c3ccccc3NCN12 (stereo unspecified)
2. C/C(=N/S(=O)(=O)c1ccc(Cl)c(Cl)c1)OCC(C)(C)C
3. CCOP(=O)(CCCC(O)CNc1cc(Cl)nc(N)n1)OCC (stereo unspecified)
4. Cc1cc2c(cc1C)[n+]([O-])c(C(=O)/C=C/c1ccccc1[N+](=O)[O-])c(C)[n+]2[O-]
5. CCOCC(=O)N[C@H]1CCc2cc(OC)c(OC)c(OC)c2-c2ccc(SC)c(=O)cc21
6. CCOC(=O)C1(C/C=C/CBr)CCc2ccccc2C1=O (stereo unspecified)

Outgoing:
> 100 µM (inactive)
> 100 µM (inactive)
> 100 µM (inactive)
> 80 µM (inactive)
< 0.01 µM (active)
11.1 µM (inactive)

* * *

test system: SW-620; assay: NCI tumour cell line growth inhibition, 48 h
Calls of active or inactive are those of the source. Rule as the data show it: active = GI50 up to about 1.1 µM and inactive = higher.
Exercise: state measured GI50 for each of the molecules provided.

Please go through the list and note GI50 for each molecule.
1. O=C1CC2(CCCc3sccc32)C(=O)N1 (centres undefined)
2. CC(=O)n1c2c(c(=O)n1-c1ccccc1)[S+]([O-])CCC2 (centres undefined)
3. N#CCCCCC12C3C(=O)N(c4ccccc4)C(=O)C3ON1O[C@@H]1C(=O)N(c3ccccc3)C(=O)[C@@H]12 (some centres undefined)
4. C[C@]12CC[C@@H]3c4ccc(OC(=O)c5ccccc5)cc4CC[C@H]3[C@@H]1CCC2OC(=O)c1cccc2c(=O)c3ccccc3[nH]c12 (some centres undefined)
5. Cc1nc2cccc([N+](=O)[O-])c2n1CCCN(C)C
6. CN1C2(c3ccccc3)C(C(=O)c3ccccc3)=C(C(=O)c3ccccc3)C1(c1ccccc1)c1c(-c3ccccc3)sc(-c3ccccc3)c12

Outgoing:
1: > 100 µM (inactive); 2: 33.3 µM (inactive); 3: > 100 µM (inactive); 4: 12.1 µM (inactive); 5: > 100 µM (inactive); 6: > 100 µM (inactive)

* * *

Exercise: state measured GI50 for each of the molecules provided.
system: MDA-MB-435; assay: NCI tumour cell line growth inhibition, 48 h
The source made the active and inactive calls. Rule as the data show it: active = GI50 up to about 1.1 µM and inactive = higher.

                                   molecule                value
0  C[C@]12CC/C(=N\O)C=C1CC[C@@H]1[C@@H]2CC[C@]2(C)C(=N/O)/C(=C/c3cccnc3)C[C@@H]12   15.9 µM (inactive)
1  CSCCC(NC(=O)OCc1ccccc1)P(=O)(O)c1ccccc1 (stereo not given)  > 100 µM (inactive)
2       O=C(O)C1CC(O)CN1 (stereo not given)  > 100 µM (inactive)

Please go through the list and note GI50 for each molecule.
1. CCOC(=O)C(=Cn1c(=S)[nH]c2ccc([N+](=O)[O-])cc21)C(=O)OCC
2. Cc1cc(/N=C/c2ccc(N(C)C)cc2)n(-c2ccccc2)n1
3. CC(C)(C)OC(=O)C1CC[C@@H](CC(=O)Oc2ccc([N+](=O)[O-])cc2)N1 (stereo not given in full)
4. Cc1cc(NC(=O)NC(=O)c2ccccc2[N+](=O)[O-])ccc1Oc1ncc(Cl)cn1
5. O=C/C(=C1/C=Cc2cc([N+](=O)[O-])ccc2S1)c1ccccc1
6. CSc1nc(Br)nc2c1ncn2C1CC(Oc2ccc(C)cc2)C(COc2ccc(C)cc2)O1 (stereo not given)
7. Cc1ccc(/C=C2\NC(=S)N(CN3CCCCC3)C2=O)cc1

Outgoing:
["> 100 µM (inactive)", "4.4 µM (inactive)", "> 100 µM (inactive)", "0.0115 µM (active)", "> 100 µM (inactive)", "> 100 µM (inactive)", "46.5 µM (inactive)"]

* * *

tested on: IGROV-1; test: NCI tumour cell line growth inhibition, 48 h
Activity calls are given as the source filed them. Cut-off read from the data, not from the text of the source: active = GI50 up to about 1.1 µM and inactive = higher.
Property Name: GI50

Example entries begin here.
                                   compound                value
0          CCOc1ccc(/N=C/c2ccc3ccccc3n2)cc1  > 100 µM (inactive)
1  CCCCCC(=O)OCC1(CO)C/C(=C/CC(C(C)C)C(C)C)C(=O)O1 (centres undefined)   17.8 µM (inactive)

Please go through the list and note GI50 for each compound.
1. CCOC(=O)c1cn(-c2ccccc2)c(=S)n2c1nc1ccccc12
2. O=C(Cc1ccccc1)N/N=C(/CCN1CCCC1)CC(c1ccccc1)c1c(O)c2ccccc2oc1=O (centres undefined)

Outgoing:
["42.5 µM (inactive)", "> 100 µM (inactive)"]

* * *

test system: SR; experiment: NCI tumour cell line growth inhibition, 48 h
Calls of active or inactive are those of the source. No stated cut-off is given here; in the data, active = GI50 up to about 1.1 µM and inactive = higher.
Answer with one of the outcomes T = active, F = inactive

Illustrative cases are given below, each with its answer.
Molecule	Assigned Class
N#CC1=C(Cl)NC(Cl)=C(C#N)C1c1c(Cl)cccc1Cl	F
COc1c2c(c3c(c1OC)c(=O)c1ccccc1n3C)OCO2	F
Cc1cc2oc(C)c(S(=O)(=O)NC(=O)Nc3ccc(Cl)cc3)c(=O)c2c(=O)o1	F
COC(=O)C1=C(OC(=O)/C(=C/c2ccccc2)c2ccccc2)C(C(=O)OC)[C@@]2(O)[C@@H](C(=O)OC)[C@H](C)C[C@@H]1[C@@H]2C(=O)OC (some centres undefined)	F
COc1ccc(/C=C\c2cc(OC)c(OC)c(OC)c2)cc1OC(=O)CC(N)C(=O)O (centres undefined)	T
CCOC(=O)c1c(N)sc2c1C(C(=O)OCC)CC2 (centres undefined)	F
CCOCC(=O)N[C@H]1CCc2cc(OC)c(OC)c(OC)c2-c2ccc(SC)c(=O)cc21	T
CCC(=O)NC(NNS(=O)(=O)c1ccc(C)cc1)(C(F)(F)F)C(F)(F)F	F

Now examine the next entry.
Incoming: # fetch the recorded call for O=S(=O)(Sc1ccc(Cl)cc1)c1ccc(Cl)cc1 here
Outgoing: F
